Kindly supply the reported binding signal values for the records listed here.
Molecular target: GST-VND7 NAC domain (Arabidopsis thaliana, UniProt Q9C8W9 9-158)
Sequence: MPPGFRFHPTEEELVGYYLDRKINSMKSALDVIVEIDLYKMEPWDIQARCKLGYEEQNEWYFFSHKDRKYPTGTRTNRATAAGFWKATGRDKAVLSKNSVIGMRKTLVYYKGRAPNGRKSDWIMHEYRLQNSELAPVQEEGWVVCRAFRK
Test: universal protein binding microarray (PBM); transcription factors of Arabidopsis thaliana; high values mean tight binding
Conditions: protein: recombinant; tags: GST; chain copies: 2; dsDNA, one strand shown
# number only, unit E-score dropped from output

Qu. For the sequence GAAGAAAC , report binding signal.
Ans. 0.0868

Qu. For the sequence GTCAACAC , report binding signal.
Ans. 0.154

Qu. For the sequence CACGCCAC , report binding signal.
Ans. 0.271

Qu. For the sequence ATACGTCA , report binding signal.
Ans. 0.322

Qu. For the sequence ACACGGCA , report binding signal.
Ans. 0.481

Qu. For the sequence GTTTCTTA , report binding signal.
Ans. 0.0761

Qu. For the sequence CTTGCTTC , report binding signal.
Ans. 0.0829

Qu. For the sequence ACACGTCA , report binding signal.
Ans. 0.447

Qu. For the sequence CAAGCAAC , report binding signal.
Ans. 0.139

Qu. For the sequence AAACACGC , report binding signal.
Ans. 0.21

Qu. For the sequence AATACTTA , report binding signal.
Ans. 0.0602
